Kindly state pEC50 for each of the entries shown.
target: PKM2 (Homo sapiens); construct: PKM2 stock enzyme solution was diluted in Reaction Buffer; test: PKM2 Assay (activation, LDH-coupled NADH absorbance at 340 nm); conditions: activation of PKM2
Sequence (P14618 whole entry): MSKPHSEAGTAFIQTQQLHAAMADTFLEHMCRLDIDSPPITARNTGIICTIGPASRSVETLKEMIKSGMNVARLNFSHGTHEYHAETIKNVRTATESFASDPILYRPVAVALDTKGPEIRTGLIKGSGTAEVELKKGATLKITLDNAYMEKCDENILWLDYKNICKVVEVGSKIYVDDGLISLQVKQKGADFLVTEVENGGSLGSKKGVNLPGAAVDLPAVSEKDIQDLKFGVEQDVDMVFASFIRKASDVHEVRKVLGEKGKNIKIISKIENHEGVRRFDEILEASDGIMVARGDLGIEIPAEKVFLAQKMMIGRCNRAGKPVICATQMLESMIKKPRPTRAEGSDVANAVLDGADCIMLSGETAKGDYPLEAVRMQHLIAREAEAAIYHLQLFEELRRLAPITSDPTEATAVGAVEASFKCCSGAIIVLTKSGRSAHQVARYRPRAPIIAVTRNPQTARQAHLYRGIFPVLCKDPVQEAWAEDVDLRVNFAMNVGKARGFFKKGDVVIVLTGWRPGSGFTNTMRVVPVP
pEC50: −log10 of the molar value.

### Prompt # query: pEC50 of entry O=C(COc1ccc(-n2cnnn2)cc1)N1CCN(S(=O)(=O)c2ccc3ccccc3c2)CC1
### Response > 5.00

### Prompt # query: pEC50 of entry O=C(CCc1ccccc1)N1CCN(S(=O)(=O)c2ccc3ccccc3c2)CC1
### Response > 5.00

### Prompt # query: pEC50 of entry COc1ccc(Cl)cc1S(=O)(=O)N1CCN(C(=O)COc2ccc(-n3cnnn3)cc2)CC1
### Response 4.00 to 5.00

### Prompt # query: pEC50 of entry O=C(COc1ccccc1)N1CCN(S(=O)(=O)c2cccc3ccccc23)CC1
### Response > 5.00

### Prompt # query: pEC50 of entry O=C(COc1ccc(-n2cnnn2)cc1)N1CCN(S(=O)(=O)c2ccccc2)CC1
### Response > 5.00

### Prompt # query: pEC50 of entry CN1C(=O)C(=O)c2cc(S(=O)(=O)N3CCN(C(=O)COc4ccccc4)CC3)ccc21
### Response 4.00 to 5.00

### Prompt # query: pEC50 of entry O=C(OCc1ccccc1)N1CCN(S(=O)(=O)c2ccc3ccccc3c2)CC1
### Response > 5.00

### Prompt # query: pEC50 of entry O=C(C1CCCCC1)N1CCN(S(=O)(=O)c2cccc(C(F)(F)F)c2)CC1
### Response > 5.00

### Prompt # query: pEC50 of entry O=C(CSc1ccc(Cl)cc1Cl)N1CCN(S(=O)(=O)c2ccc3ccccc3c2)CC1
### Response > 5.00

### Prompt # query: pEC50 of entry O=C(COc1ccccc1)N1CCN(S(=O)(=O)c2ccc3ccccc3c2)CC1
### Response > 5.00

### Prompt # query: pEC50 of entry O=C(COc1cccnc1)N1CCN(S(=O)(=O)c2ccc3ccccc3c2)CC1
### Response > 5.00

### Prompt # query: pEC50 of entry O=C(COc1ccccc1)N1CCN(S(=O)(=O)c2cccc3cccnc23)CC1
### Response > 5.00

### Prompt # query: pEC50 of entry CN1C(=O)COc2ccc(S(=O)(=O)N3CCN(C(=O)COc4ccccc4)CC3)cc21
### Response 4.00 to 5.00

### Prompt # query: pEC50 of entry O=C(COc1ccc(-n2cnnn2)cc1)N1CCN(S(=O)(=O)c2c(F)cccc2F)CC1
### Response > 5.00

### Prompt # query: pEC50 of entry O=C(Cc1ccc(C(F)(F)F)cc1)N1CCN(S(=O)(=O)c2ccc3ccccc3c2)CC1
### Response > 5.00

### Prompt # query: pEC50 of entry O=C(COc1ccc(C(F)(F)F)cc1)N1CCN(S(=O)(=O)c2ccc3c(c2)OCCO3)CC1
### Response < 4.00

### Prompt # query: pEC50 of entry O=C(COc1ccc(-n2cnnn2)cc1)N1CCN(S(=O)(=O)c2cccn2-c2ncc(C(F)(F)F)cc2Cl)CC1
### Response 4.00 to 5.00

### Prompt # query: pEC50 of entry O=C(COc1ccccc1)N1CCN(S(=O)(=O)c2ccccc2)CC1
### Response > 5.00

### Prompt # query: pEC50 of entry O=C(COc1ccc(-n2cnnn2)cc1)N1CCN(S(=O)(=O)c2ccc(F)cc2)CC1
### Response > 5.00

### Prompt # query: pEC50 of entry O=C(COCc1ccccc1)N1CCN(S(=O)(=O)c2ccc3ccccc3c2)CC1
### Response > 5.00
